# maps each entry to its Plutella xylostella Mortality (%)
System: Plutella xylostella
Test: whole plant or invertebrate
Assay type: in vivo
Details: 500 ppm; 2nd-instar larvae, leaf immersion feeding
From the text: (1) Insecticidal Activity on 2nd-Instar Larvae of Plutella xylostella. Plutella xylostella (L.) is a lepidoptera pest with a chewing mouthpart and is a common vegetable pest. The 2nd-instar larvae of Plutella xylostella were used as test objects and tested by using a leaf immersion feeding method. […]
The reply should be a number in %, with the unit left off.

Before answering, review these 2 worked examples.
{"compound": "COC(=O)CC1(C(=O)OC)Nc2c([S+]([O-])C(F)(F)F)c(C(C)=O)nn2-c2c(Cl)cc(C(F)(F)F)cc21 (stereo not drawn)", "value_observed": 85}
{"compound": "CC=CC1Nc2c([S+]([O-])C(F)(F)F)c(C#N)nn2-c2cncc(Cl)c21 (stereo not drawn)", "value_observed": 96}

Qu. Find the recorded Plutella xylostella Mortality (%) belonging to CC(=O)C1(CC(=O)C(F)(F)F)Nc2c([S+]([O-])C(F)(F)F)c(C#N)nn2-c2cc(C(F)(F)F)cc(Cl)c21 (stereo not drawn) and report it.
Ans. 90

Qu. Find the recorded Plutella xylostella Mortality (%) belonging to CC(=O)C1(CBr)Nc2c([S+]([O-])C(F)(F)F)c(C#N)nn2-c2cncc(Cl)c21 (stereo not drawn) and report it.
Ans. 90

Qu. Find the recorded Plutella xylostella Mortality (%) belonging to N#Cc1nn2c(c1[S+]([O-])C(F)(F)F)NC(Cl)c1c(Cl)cncc1-2 (stereo not drawn) and report it.
Ans. 95

Qu. Find the recorded Plutella xylostella Mortality (%) belonging to CC(=O)C1(CC(F)(F)F)Nc2c([S+]([O-])C(F)(F)F)c(C#N)nn2-c2c(Cl)cc(C(F)(F)F)cc21 (stereo not drawn) and report it.
Ans. 96

* * *

System: Solenopsis invicta
Assay: whole plant or invertebrate
Assay type: in vivo
Settings: 100 ppm; 72 h; water test tube poison-feeding
Text: (4) Insecticidal Activity on Solenopsis invicta. As a hymenoptera pests and a social insect, Solenopsis invicta is one of the most destructive invasive organisms. Solenopsis invicta were used as test objects and tested by using a water test tube poison-feeding method. […]
endpoint: Solenopsis invicta Mortality (%) 72 h
The reply should be a number in %, with the unit left off.

Before answering, review these 6 worked examples.
{"compound": "N#CCC1Nc2c(OC(F)(F)F)c(C#N)nn2-c2c(Cl)cc(C(F)(F)F)cc21 (centres unmarked)", "Solenopsis invicta Mortality (%) 72 h": 100}
{"compound": "CCCCOC(=O)CC1(C(=O)OCCCC)Nc2c([S+]([O-])C(F)(F)F)c(C#N)nn2-c2c(Cl)cc(C(F)(F)F)cc21 (centres unmarked)", "Solenopsis invicta Mortality (%) 72 h": 76}
{"compound": "CCOC(=O)C1(CC(=O)OC)Nc2c([S+]([O-])C(F)(F)F)c(C#N)nn2-c2cncc(Cl)c21 (centres unmarked)", "Solenopsis invicta Mortality (%) 72 h": 97}
{"compound": "CCOC(=O)CC1(C(=O)OCC)Nc2c([S+]([O-])C(F)(F)F)c(C#N)nn2-c2c(C(F)(F)F)ccc(Cl)c21 (centres unmarked)", "Solenopsis invicta Mortality (%) 72 h": 100}
{"compound": "N#Cc1nn2c(c1[S+]([O-])C(F)(F)F)NC(Cc1ccccc1)(C(=O)C(F)(F)F)c1c(Cl)cncc1-2 (centres unmarked)", "Solenopsis invicta Mortality (%) 72 h": 100}
{"compound": "CNC1(CC#N)Nc2c([S+]([O-])C(F)(F)F)c(C#N)nn2-c2cncc(Cl)c21 (centres unmarked)", "Solenopsis invicta Mortality (%) 72 h": 90}

Qu. Write down the reported Solenopsis invicta Mortality (%) 72 h of COC(=O)C1(CC(C)=O)Nc2c([S+]([O-])C(F)(F)F)c(C#N)nn2-c2c(Cl)cc(C(F)(F)F)cc21 (centres unmarked) , test system: Solenopsis invicta.
Ans. 100

Qu. Write down the reported Solenopsis invicta Mortality (%) 72 h of CC(=O)C1Nc2c([S+]([O-])C(F)(F)F)c(C(F)(F)F)nn2-c2c(Cl)cc(C(F)(F)F)cc21 (centres unmarked) , test system: Solenopsis invicta.
Ans. 99

Qu. Write down the reported Solenopsis invicta Mortality (%) 72 h of COC(=O)CC1(C(=O)OC)Nc2c(C(F)(F)F)c(C#N)nn2-c2cc(C(F)(F)F)cc(Cl)c21 (centres unmarked) , test system: Solenopsis invicta.
Ans. 97

Qu. Write down the reported Solenopsis invicta Mortality (%) 72 h of N#Cc1nn2c(c1[S+]([O-])C(F)(F)F)NC(CC(=O)C(F)(F)F)(C(=O)C(F)(F)F)c1c(Cl)cncc1-2 (centres unmarked) , test system: Solenopsis invicta.
Ans. 100

Qu. Write down the reported Solenopsis invicta Mortality (%) 72 h of CC(=O)C1(CC(=O)C(F)(F)F)Nc2c([S+]([O-])C(F)(F)F)c(C#N)nn2-c2cncc(Cl)c21 (centres unmarked) , test system: Solenopsis invicta.
Ans. 94

* * *

# maps each entry to its Toxicity determination Apis cernan Mortality (%)
tested on: Apis cernan; assay: Toxicity test on adult worker bees of Apis cernan, small beaker method; assay type: in vivo; settings: 500 ppm, 48 hours
The reply should be a number in %, with the unit left off.

Before answering, review these 3 worked examples.
{"compound": "COC(=O)CC1(C(=O)OC)c2cc(C(F)(F)F)cc(Cl)c2-n2nc(C#N)c([S+]([O-])C(F)(F)F)c2N1C(C)=O (stereo not shown)", "value_observed": 4}
{"compound": "CNC(=O)N1c2c(C#N)c(SC)nn2-c2ccccc2C1(F)C(F)(F)F (stereo not shown)", "value_observed": 4}
{"compound": "C=CC(=O)Nc1ccc2c(c1)-n1cc(C#N)c(C#N)c1NC2(C#N)C#N", "value_observed": 4}

Consider the additional compound presented here.
Qu. Find the recorded Toxicity determination Apis cernan Mortality (%) belonging to COc1ccc(-c2cn3c(c2C#N)N(C)C(C#N)(C#N)c2ccc([N+](=O)[O-])cc2-3)cc1 and report it.
Ans. 4

Source: patent US11401271B2
